- System: TEAD4 (Homo sapiens, UniProt Q15561)
- Sequence (Q15561 whole entry, species assumed): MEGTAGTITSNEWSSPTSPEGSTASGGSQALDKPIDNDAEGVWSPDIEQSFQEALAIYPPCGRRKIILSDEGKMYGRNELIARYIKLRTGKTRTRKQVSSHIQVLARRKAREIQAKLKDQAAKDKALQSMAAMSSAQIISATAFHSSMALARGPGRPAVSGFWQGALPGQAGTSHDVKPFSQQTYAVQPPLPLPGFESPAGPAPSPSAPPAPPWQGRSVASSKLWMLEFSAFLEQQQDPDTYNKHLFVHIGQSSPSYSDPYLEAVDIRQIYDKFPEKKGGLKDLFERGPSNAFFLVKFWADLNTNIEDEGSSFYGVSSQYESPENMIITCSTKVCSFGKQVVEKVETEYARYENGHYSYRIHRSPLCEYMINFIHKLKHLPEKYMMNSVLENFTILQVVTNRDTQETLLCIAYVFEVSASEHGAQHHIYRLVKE
- Assay Procedure: Thermal shift assay TEAD4
- Format: binding
Readout Type: TEAD4 ΔTm (°C)

>>> measurement("CNS(=O)(=O)CCc1cc(Oc2ccc(C(F)(F)F)cc2)cc2cn(C)nc12")
10.6

A. Cn1cc2cc(Oc3ccc(C(F)(F)F)cc3)cc(C3C[C@H]3C(=O)N3CCC(O)CC3)c2n1 (single isomer, unassigned)
B. CNC(=O)[C@@H]1CC1c1cc(-c2ccc(C(F)(F)F)cc2)cc2scnc12 (mixture of isomers)
C. CNC(=O)[C@@H]1CC1c1cc(-c2ccc(C(F)(F)F)cc2)cc2cccnc12 (mixture of isomers)
Sort entries by TEAD4 ΔTm from minimum to maximum value. Please respond by ranking the labels in the order requested.
B, C, A

Data provenance: patent US12103915B2
